system: Nucleic Acid; assay: Induction of Escherichia coli supercoiled pBR322 DNA cleavage assessed as formation of linear form of DNA using bromophenol blue at 4 uM after 30 mins by agarose gel electrophoresis analysis in presence of equimolar Fe2+; format: nucleic-acid assay
Active and inactive are the calls of the source. No cut-off for these calls is given here.
measured quantity: Activity

smiles_str=Cc1c(N)nc([C@H](CC(N)=O)NC[C@H](N)C(N)=O)nc1C(=O)N[C@@H](Cc1c[nH]cn1)C(=O)N[C@H](CC(C)C)[C@@H](O)[C@H](CC(C)C)C(=O)N[C@H](C(=O)NCCc1nc(-c2nc(C(=O)NCCCNCCCCNCCCN)cs2)cs1)[C@@H](C)O target_under_test="Nucleic Acid" measured_quantity=Activity experimental_value=Active
smiles_str=Cc1c(N)nc([C@H](CC(N)=O)NC[C@H](N)C(N)=O)nc1C(=O)N[C@@H](Cc1c[nH]cn1)C(=O)N[C@H](Cc1ccccc1)[C@@H](O)[C@H](C)C(=O)N[C@H](C(=O)NCCc1nc(-c2nc(C(=O)NCCCNCCCCNCCCN)cs2)cs1)[C@@H](C)O target_under_test="Nucleic Acid" measured_quantity=Activity experimental_value=Active

----------
system: Nucleic Acid; assay: Induction of Escherichia coli supercoiled pBR322 DNA cleavage assessed as formation of nicked DNA using bromophenol blue at 1 to 4 uM after 30 mins by agarose gel electrophoresis analysis in presence of equimolar Fe2+; type: nucleic-acid assay
Activity calls are given as the source filed them. The rule behind the calls is not given here.
measured quantity: Activity

smiles_str=Cc1c(N)nc([C@H](CC(N)=O)NC[C@H](N)C(N)=O)nc1C(=O)N[C@@H](Cc1c[nH]cn1)C(=O)N[C@H](C)[C@@H](O)[C@H](Cc1ccccc1)C(=O)N[C@H](C(=O)NCCc1nc(-c2nc(C(=O)NCCCNCCCCNCCCN)cs2)cs1)[C@@H](C)O measured_quantity=Activity experimental_value=Active
smiles_str=Cc1c(N)nc([C@H](CC(N)=O)NC[C@H](N)C(N)=O)nc1C(=O)N[C@@H](Cc1c[nH]cn1)C(=O)N[C@H](CC(C)C)[C@@H](O)[C@H](CC(C)C)C(=O)N[C@H](C(=O)NCCc1nc(-c2nc(C(=O)NCCCNCCCCNCCCN)cs2)cs1)[C@@H](C)O measured_quantity=Activity experimental_value=Active
